Measured viability, T/C, listed per entry.
System: 941728-121-R-J1-PDC complex spheroid viability;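 also: spheroids exposed to compounds for 7 days before readout; 100% = DMSO vehicle control viability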
Experimental Protocol: Anticancer human tumor 941728-121-R-J1-PDC patient-derived lung adenocarcinoma cell line growth inhibition [RAS]
Condition Description: second compound 0.03 µM; first compound 1 µM; hits give low values

{"columns": ["Compound", "U", "viability, T/C"],
 "data": [
  ["O=C(c1ccc(F)c(F)c1Nc1ccc(I)cc1F)N1CC(O)([C@@H]2CCCCN2)C1 + CCn1c(-c2cc(N3CCN(C)CC3)cnc2C(C)OC)c2c3cc(ccc31)-c1csc(n1)CC(NC(=O)C1CC1C)C(=O)N1CCCC(N1)C(=O)OCC(C)(C)C2", "%", 10.3],
  ["CC1(O)CCCC1n1c(=O)c(C(F)F)cc2cnc(NC3CCN(S(C)(=O)=O)CC3)nc21 (configuration not stated) + CCn1c(-c2cc(N3CCN(C)CC3)cnc2C(C)OC)c2c3cc(ccc31)-c1csc(n1)CC(NC(=O)C1CC1C)C(=O)N1CCCC(N1)C(=O)OCC(C)(C)C2", "%", 14.4],
  ["Nc1ccn(C2OC(CO)C(O)C2(F)F)c(=O)n1 (configuration not stated) + CCn1c(-c2cccnc2C(C)OC)c2c3cc(ccc31)N1CCOC(CC(NC(=O)C(C(C)C)N(C)C(=O)C3(F)CCN(C(=O)C#CC(C)(C)N(C)C)CC3)C(=O)N3CCCC(N3)C(=O)OCC(C)(C)C2)C1", "%", 17.7],
  ["CC(C)NCC(C(=O)N1CCN(c2ncnc3c2C(C)CC3O)CC1)c1ccc(Cl)cc1 (configuration not stated) + CCn1c(-c2cc(N3CCN(C)CC3)cnc2C(C)OC)c2c3cc(ccc31)-c1csc(n1)CC(NC(=O)C1CC1C)C(=O)N1CCCC(N1)C(=O)OCC(C)(C)C2", "%", 11.3],
  ["Nc1ccn(C2OC(CO)C(O)C2(F)F)c(=O)n1 (configuration not stated) + CCn1c(-c2cc(N3CCN(C)CC3)cnc2C(C)OC)c2c3cc(ccc31)-c1csc(n1)CC(NC(=O)C1CC1C)C(=O)N1CCCC(N1)C(=O)OCC(C)(C)C2", "%", 10.1],
  ["Cc1nc(N2CCC3(CC2)COC(C)C3N)c(CO)nc1Sc1ccnc(N)c1Cl (configuration not stated) + CCn1c(-c2cccnc2C(C)OC)c2c3cc(ccc31)N1CCOC(CC(NC(=O)C(C(C)C)N(C)C(=O)C3(F)CCN(C(=O)C#CC(C)(C)N(C)C)CC3)C(=O)N3CCCC(N3)C(=O)OCC(C)(C)C2)C1", "%", 15.7],
  ["C=CC(=O)N1CCN(c2nc(OCC3CCCN3C)nc3c(F)c(-c4nc(N)cc(C)c4C(F)(F)F)c(Cl)cc23)C(C)C1 (configuration not stated) + CCn1c(-c2cc(N3CCN(C)CC3)cnc2C(C)OC)c2c3cc(ccc31)-c1csc(n1)CC(NC(=O)C1CC1C)C(=O)N1CCCC(N1)C(=O)OCC(C)(C)C2", "%", 17.8],
  ["CC(Nc1ccc2c(c1)OCCn1cc(N3C(=O)OCC3C(F)F)nc1-2)C(N)=O (configuration not stated) + CCn1c(-c2cccnc2C(C)OC)c2c3cc(ccc31)N1CCOC(CC(NC(=O)C(C(C)C)N(C)C(=O)C3(F)CCN(C(=O)C#CC(C)(C)N(C)C)CC3)C(=O)N3CCCC(N3)C(=O)OCC(C)(C)C2)C1", "%", 15.7],
  ["CCC(CC)c1cc(NC2CCC(N)C2)n2nccc2n1 (configuration not stated) + CCn1c(-c2cc(N3CCN(C)CC3)cnc2C(C)OC)c2c3cc(ccc31)-c1csc(n1)CC(NC(=O)C1CC1C)C(=O)N1CCCC(N1)C(=O)OCC(C)(C)C2", "%", 21.2],
  ["O=C(c1ccc(F)c(F)c1Nc1ccc(I)cc1F)N1CC(O)([C@@H]2CCCCN2)C1 + CCn1c(-c2cccnc2C(C)OC)c2c3cc(ccc31)N1CCOC(CC(NC(=O)C(C(C)C)N(C)C(=O)C3(F)CCN(C(=O)C#CC(C)(C)N(C)C)CC3)C(=O)N3CCCC(N3)C(=O)OCC(C)(C)C2)C1", "%", 12.2],
  ["CC1(O)CCCC1n1c(=O)c(C(F)F)cc2cnc(NC3CCN(S(C)(=O)=O)CC3)nc21 (configuration not stated) + CCn1c(-c2cccnc2C(C)OC)c2c3cc(ccc31)N1CCOC(CC(NC(=O)C(C(C)C)N(C)C(=O)C3(F)CCN(C(=O)C#CC(C)(C)N(C)C)CC3)C(=O)N3CCCC(N3)C(=O)OCC(C)(C)C2)C1", "%", 27.4],
  ["C=CC(=O)Nc1cc(Nc2nccc(-c3cn(C)c4ccccc34)n2)c(OC)cc1N(C)CCN(C)C + CCn1c(-c2cccnc2C(C)OC)c2c3cc(ccc31)N1CCOC(CC(NC(=O)C(C(C)C)N(C)C(=O)C3(F)CCN(C(=O)C#CC(C)(C)N(C)C)CC3)C(=O)N3CCCC(N3)C(=O)OCC(C)(C)C2)C1", "%", 15.5]
]}
